Tested on: NCI-H460 lung
Please reply with one of these outcomes: 1 (yes) (active), 0 (no) (inactive)

These solved cases illustrate the format of a correct answer.
Cc1c2cnccc2c(C)c2c1c1cc(O)ccc1n2C(C)C 1 (yes)
C1=N[C@]23C(=N[C@H](N=C2NCc2ccco2)[C@]24N=CNC2=N[C@H]3N=C4NCc2ccco2)N1 0 (no)

Query compound follows.
Please state the recorded outcome for this compound: Cc1cc(F)c(C(=O)Nc2cccc(-c3nncn3C(C)C)n2)cc1-n1cnc(C2CC2)c1
0 (no)

====

Test system: ACHN renal
measurement_description: NCI tumour cell line growth inhibition, 48 h
measure_name: TGI

Here's what some known entries look like.
molecule	TGI
O=C(Nc1ccccc1[N+](=O)[O-])/C(=N/Nc1cccc(Cl)c1)c1c(O)c2ccccc2oc1=O	> 100 µM
C[C@@H](O)[C@@H](C)Oc1nc(Nc2ccc(S(=N)(=O)C3CC3)cc2)ncc1C(F)(F)F (stereo partly drawn)	> 100 µM

# evaluate next
Name the recorded TGI for CON(C)c1nc(N)c(C#N)c(C#N)c1C#N .
> 10 µM

====

Test system: OVCAR-4 ovarian
measurement_description: NCI tumour cell line growth inhibition, 48 h
# TGI annotations

Here's what some known entries look like.
compound	result
CC(=O)N1C(C(=O)NN2CCOCC2)CSC1c1ccccc1 (stereo not drawn)	> 100 µM
Cc1nc2cn3c(c2c(=O)[nH]1)CCCCC3	> 100 µM

# evaluate next
Name the recorded TGI for CC(=O)Nc1ccc(NC(=O)CC(=O)Nc2ccc(NC(C)=O)cc2)cc1 .
> 100 µM

====

System: HOP-62 NSCLC
measurement_description: NCI tumour cell line growth inhibition, 48 h
# TGI annotations

Here's what some known entries look like.
molecule	measure_name	result
COc1ccccc1-n1cnc2c1NC(C)(C)N=C2C(N)=O	TGI	> 100 µM
Nc1nc(=O)n(C2CC(O)C(CO)O2)cc1F (configuration not stated)	TGI	> 100 µM
CN1CCN(CCCOc2cccc3nc(Nc4cc(Cl)cc(Cl)c4)ccc23)CC1	TGI	2.81 µM
COc1ccc2c(c1)CC[C@@H]1[C@@H]2CC[C@]2(C)/C(=N/OCCN3CCCC3)CC[C@@H]12	TGI	4.67 µM
O=[N+]([O-])c1cc(Br)cc2cc(Cl)cnc12	TGI	> 100 µM
CCOC(=O)/C=C/n1c2ccccc2c(=O)c2cc(OC)ccc21	TGI	> 100 µM
COC(=O)C(C(=O)C(=O)Nc1ccc(C)cc1)c1nc2ccc([N+](=O)[O-])cc2[nH]c1=O (configuration not stated)	TGI	> 100 µM
NC(CCSCC(F)(F)F)C(=O)O (configuration not stated)	TGI	> 100 µM

Name the recorded TGI for NC(N)=NN=c1c(=O)c2ccccc2c1=O .
21 µM

Name the recorded TGI for CCOC(=O)NN(C(=O)OCC)c1ccc(N=Nc2ccc(OC)cc2)n1C .
86.8 µM

Name the recorded TGI for Cc1sc2c(c1C)C(=O)c1cccn1-2 .
> 100 µM

Name the recorded TGI for C=CCn1c(-c2cc(C(C)(C)C)c(O)c(C(C)(C)C)c2)cs/c1=N\C(P(=O)(O)O)P(=O)(O)O .
> 100 µM

Name the recorded TGI for Cc1noc2cccc(O)c12 .
> 100 µM

Name the recorded TGI for O=C(COc1ccc(/C=C2\Oc3ccc4ccccc4c3C2=O)cc1)c1ccc([N+](=O)[O-])cc1 .
61.6 µM

Name the recorded TGI for O=C(N/N=C(/COc1ccccc1)N=Cc1ccncc1)c1ccncc1 .
> 100 µM

Name the recorded TGI for CN(C)c1ccc(/C=C/C(=O)c2ccc(Nc3nc(Nc4ccc(F)cc4)nc(Nc4ccc(F)cc4)n3)cc2)cc1 .
47.4 µM

Name the recorded TGI for C/C(NNC(=O)c1ccccc1O)=C1\C=Nc2ccccc2S1 .
> 100 µM

Name the recorded TGI for CC[C@H](C)[C@H](NC(=O)N(CCC#N)CCN(CCN(C(=O)N[C@@H](Cc1ccccc1)C(=O)OC)c1ccccc1)C(=O)N[C@H](C(=O)OC)C(C)C)C(=O)OC .
44.9 µM

Name the recorded TGI for NC(Cc1ccccc1)C(=O)OCN1C(=O)C2C3C=CC(C2C1=O)C1C2C(=O)N(COC(=O)C(N)Cc4ccccc4)C(=O)C2C31 (configuration not stated) .
> 100 µM

Name the recorded TGI for CC1CC(=O)Nc2ccc(Cl)cc2N1C(=O)CN1CCC(CCCCN(C)C)CC1 (configuration not stated) .
> 100 µM

Name the recorded TGI for Cc1cccc2c(C3=C(c4cn(C)c5ccccc45)C(=O)NC3=O)cn(C)c12 .
> 25 µM

Name the recorded TGI for Cc1ccc(C2(O)c3ccccc3C(=O)N(C)C2(O)c2ccc(C)cc2)cc1 (configuration not stated) .
49.5 µM

Attribution: PubChem BioAssay (NCI)
